Provenance of the data: ChEMBL document CHEMBL1148023

Tested on: Staphylococcus aureus
protocol: Antibacterial activity against methicillin-sensitive Staphylococcus aureus 01-430 by broth microdilution method
Assay type: functional
property-measured: MIC (µg/mL)
Numbers only here, please. The scale is µg/mL.

Solved entries:
Report MIC for `C=CCO[C@@H]1C[C@@H](C)C(=O)[C@H](C)[C@H]2OC(=O)O[C@]2(C)[C@@H](CC)OC(=O)[C@H](C)[C@@H](OC(=O)CCc2c[nH]c3ccccc23)[C@H](C)[C@H]1O[C@@H]1O[C@H](C)C[C@H](N(C)C)[C@H]1O`
32

Report MIC for CC[C@H]1OC(=O)[C@H](C)[C@@H](O[C@H]2C[C@@](C)(OC)[C@@H](O)[C@H](C)O2)[C@H](C)[C@@H](O[C@@H]2O[C@H](C)C[C@H](N(C)C)[C@H]2O)[C@](C)(OC)C[C@@H](C)C(=O)[C@H](C)[C@@H](O)[C@]1(C)O [CLARITHROMYCIN]
0.25

Report MIC for `C=CCO[C@@H]1C[C@@H](C)C(=O)[C@H](C)[C@H]2OC(=O)O[C@]2(C)[C@@H](CC)OC(=O)[C@H](C)[C@@H](OC(=O)Cc2cccnc2)[C@H](C)[C@H]1O[C@@H]1O[C@H](C)C[C@H](N(C)C)[C@H]1O`
1

Further cases:
Report MIC for C=CCO[C@@H]1C[C@@H](C)C(=O)[C@H](C)[C@H]2OC(=O)O[C@]2(C)[C@@H](CC)OC(=O)[C@H](C)[C@@H](OC(=O)Cc2ccc(Cl)cc2)[C@H](C)[C@H]1OC1O[C@H](C)C[C@H](N(C)C)[C@H]1O (some centres undefined)
4
